- measured-target: ΔF508-CFTR (Homo sapiens, UniProt P13569, DEL508-508)
- Sequence (P13569 with tags, fused parts or gaps DEL508-508): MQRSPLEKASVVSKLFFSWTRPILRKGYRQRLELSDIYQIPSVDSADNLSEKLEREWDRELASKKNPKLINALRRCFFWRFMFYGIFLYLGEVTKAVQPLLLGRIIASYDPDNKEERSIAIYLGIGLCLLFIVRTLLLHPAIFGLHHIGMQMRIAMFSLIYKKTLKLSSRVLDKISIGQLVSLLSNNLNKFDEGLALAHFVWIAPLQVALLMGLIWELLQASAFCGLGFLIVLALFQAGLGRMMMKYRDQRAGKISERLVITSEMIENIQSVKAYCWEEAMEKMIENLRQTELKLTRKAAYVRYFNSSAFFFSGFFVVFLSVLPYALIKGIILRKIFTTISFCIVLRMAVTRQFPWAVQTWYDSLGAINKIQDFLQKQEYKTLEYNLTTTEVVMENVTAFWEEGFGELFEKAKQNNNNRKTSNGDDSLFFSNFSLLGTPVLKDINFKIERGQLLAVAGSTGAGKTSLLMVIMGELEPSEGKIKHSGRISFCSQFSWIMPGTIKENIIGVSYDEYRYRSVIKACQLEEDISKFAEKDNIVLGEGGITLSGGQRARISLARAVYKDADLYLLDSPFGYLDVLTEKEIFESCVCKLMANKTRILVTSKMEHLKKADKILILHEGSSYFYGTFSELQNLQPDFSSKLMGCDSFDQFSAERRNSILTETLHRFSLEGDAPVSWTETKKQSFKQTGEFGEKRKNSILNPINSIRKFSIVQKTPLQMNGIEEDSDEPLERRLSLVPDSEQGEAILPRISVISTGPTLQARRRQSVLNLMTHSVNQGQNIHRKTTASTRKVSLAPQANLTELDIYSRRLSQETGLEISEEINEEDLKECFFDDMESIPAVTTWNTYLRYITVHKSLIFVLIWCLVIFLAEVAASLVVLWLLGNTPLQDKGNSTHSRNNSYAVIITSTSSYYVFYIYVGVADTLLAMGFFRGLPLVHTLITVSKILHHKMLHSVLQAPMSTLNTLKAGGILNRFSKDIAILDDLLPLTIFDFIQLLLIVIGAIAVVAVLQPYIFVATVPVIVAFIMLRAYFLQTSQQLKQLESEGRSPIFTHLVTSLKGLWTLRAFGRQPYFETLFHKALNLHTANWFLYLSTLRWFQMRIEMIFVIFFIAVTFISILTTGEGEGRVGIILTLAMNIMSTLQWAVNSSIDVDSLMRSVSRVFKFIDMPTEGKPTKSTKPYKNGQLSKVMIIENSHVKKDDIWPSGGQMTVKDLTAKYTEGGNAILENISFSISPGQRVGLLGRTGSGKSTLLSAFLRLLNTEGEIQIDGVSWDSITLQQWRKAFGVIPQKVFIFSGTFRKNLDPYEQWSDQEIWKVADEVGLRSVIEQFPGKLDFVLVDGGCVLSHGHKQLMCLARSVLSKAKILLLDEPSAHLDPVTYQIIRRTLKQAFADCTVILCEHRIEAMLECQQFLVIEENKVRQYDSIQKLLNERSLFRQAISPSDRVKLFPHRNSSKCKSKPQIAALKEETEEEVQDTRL
- assay-method-text: Membrane potential optical (FRET/VIPR) assay, identification of correction compounds
- protocol-conditions: Table 3; assay not given
pEC50: −log10 of the molar value.
measured-metric: pEC50

Example cases with answers are listed next.
- compound: "COC[C@@H]1CCCN1C(c1cnc(NC(=O)C2(c3ccc4c(c3)OCO4)CC2)s1)C(C)(C)C (stereo partly shown)"
  recorded-result: "4.60 to 5.00"
- compound: "COc1ccc(C2(C(=O)Nc3ncc(Sc4ccccc4C(=O)O)s3)CC2)cc1"
  recorded-result: "> 5.00"
- compound: "CC(C)[C@H](CO)NC(c1cnc(NC(=O)C2(c3ccc4c(c3)OCO4)CC2)s1)c1cc(F)ccc1F (stereo partly shown)"
  recorded-result: "> 5.00"

Please give measured pEC50 of the following entry: O=C(O)c1cccc(Sc2cnc(NC(=O)C3(c4ccc5c(c4)OCO5)CC3)s2)c1
> 5.00

Please give measured pEC50 of the following entry: Cc1cc(NC(=O)C2(c3ccc4c(c3)OCO4)CC2)n(Cc2ccccc2)n1
4.60 to 5.00

Please give measured pEC50 of the following entry: CC(C)(C)[C@H](CO)NC(c1cnc(NC(=O)C2(c3ccc4c(c3)OCO4)CC2)s1)c1ccccc1Cl (stereo partly shown)
> 5.00

Please give measured pEC50 of the following entry: CN(C)C(c1cnc(NC(=O)C2(c3ccc4c(c3)OCO4)CC2)s1)C(C)(C)C (stereo not shown)
4.60 to 5.00

====

Each entry below carries its reported pEC50.
- measured-target: ΔF508-CFTR (Homo sapiens, UniProt P13569, DEL508-508)
- assay-method-text: Membrane potential optical (FRET/VIPR) assay, identification of correction compounds
- protocol-conditions: Table 3; assay not given
pEC50: −log10 of the molar value.

Example cases with answers are listed next.
- molecule: "CC(=O)c1sc(NC(=O)C2(c3ccc4c(c3)OCO4)CC2)nc1C [Example 107]"
  measured-metric: "pEC50"
  recorded-result: "> 5.00"
- molecule: "CC1CCc2c(sc(NC(=O)C3(c4ccc5c(c4)OCO5)CC3)c2C#N)C1 (stereo not drawn) [Example 296]"
  measured-metric: "pEC50"
  recorded-result: "> 5.00"

Now turn to the next molecule.
Please give measured pEC50 of the following entry: COCCN1CCN(C(c2cnc(NC(=O)C3(c4ccc5c(c4)OCO5)CC3)s2)c2ccccc2Cl)CC1 (stereo not drawn) [Example 238]
> 5.00

====

- measured-target: ΔF508-CFTR (Homo sapiens, UniProt P13569, DEL508-508)
- assay-method-text: Membrane potential optical (FRET/VIPR) assay, identification of correction compounds
- protocol-conditions: Table 3; assay not given
pEC50: −log10 of the molar value.
Each entry below carries its reported pEC50.

Example cases with answers are listed next.
- compound: "C[C@@H](CO)NC(c1cnc(NC(=O)C2(c3ccc4c(c3)OCO4)CC2)s1)c1ccccc1Cl (stereo partly drawn) [Example 437]"
  recorded-result: "> 5.00"
- compound: "COC[C@@H]1CCCN1C(c1ccccc1)c1cnc(NC(=O)C2(c3ccc4c(c3)OCO4)CC2)s1 (stereo partly drawn)"
  recorded-result: "4.60 to 5.00"
- compound: "O=C(Nc1ncc(Cc2ccccc2Cl)s1)C1(c2cccc(N3CCOCC3)c2)CC1"
  recorded-result: "> 5.00"
- compound: "CCOc1ccccc1C(N[C@@H](CO)CC(C)C)c1cnc(NC(=O)C2(c3ccc4c(c3)OCO4)CC2)s1 (stereo partly drawn)"
  recorded-result: "> 5.00"
- compound: "O=C(Nc1ncc(C(SCCCCO)c2ccccc2Cl)s1)C1(c2ccc3c(c2)OCO3)CC1 (stereo not drawn)"
  recorded-result: "> 5.00"
- compound: "COc1ccc(C2(C(=O)Nc3ncc(Cc4c(F)cccc4OC)s3)CC2)cc1"
  recorded-result: "> 5.00"

Please give measured pEC50 of the following entry: CS(=O)(=O)c1ccc(-c2csc(NC(=O)C3(c4ccc5c(c4)OCO5)CC3)n2)cc1
> 5.00

Please give measured pEC50 of the following entry: O=C(Nc1ncc(CN2CC[C@H](O)C2)s1)C1(c2ccc3c(c2)OCO3)CC1
4.60 to 5.00

Please give measured pEC50 of the following entry: O=C(Nc1ncc(C(c2ccccc2Cl)N2CCC(O)C2)s1)C1(c2ccc3c(c2)OCO3)CC1 (stereo not drawn)
> 5.00

Please give measured pEC50 of the following entry: CCNC(c1cnc(NC(=O)C2(c3ccc4c(c3)OCO4)CC2)s1)c1ccccc1Cl (stereo not drawn)
> 5.00

Please give measured pEC50 of the following entry: CCC(c1cnc(NC(=O)C2(c3ccc4c(c3)OCO4)CC2)s1)N1CCC[C@@H]1COC (stereo partly drawn)
4.60 to 5.00

Please give measured pEC50 of the following entry: CC(C)[C@H](CO)NC(c1cnc(NC(=O)C2(c3ccc4c(c3)OCO4)CC2)s1)c1ccccc1F (stereo partly drawn)
> 5.00

====

Each entry below carries its reported Emax.
- measured-target: ΔF508-CFTR (Homo sapiens, UniProt P13569, DEL508-508)
- Construct: expressed in transfected cells
- assay-method-text: Membrane potential optical (FRET/VIPR) assay, identification of correction compounds
- Type: cell-based
- protocol-conditions: Table 3; assay not given; read-out: % Activity / % Efficacy (relative efficacy)

Example cases with answers are listed next.
- compound: "O=C(Nc1ncc(-c2ccncc2)s1)C1(c2ccc3c(c2)OCO3)CC1"
  Emax: "25 to 100%"
- compound: "O=C(Nc1ncc(C(c2ccccc2)N2CCC(O)CC2)s1)C1(c2ccc3c(c2)OCO3)CC1 (stereo not drawn)"
  Emax: "> 100%"
- compound: "O=C(Nc1ncc(Cc2ccccc2Cl)s1)C1(c2ccc(N3CCOCC3)cc2)CC1"
  Emax: "25 to 100%"
- compound: "CC(C)C[C@@H](CO)NC(c1cnc(NC(=O)C2(c3ccc4c(c3)OCO4)CC2)s1)c1ccccc1Cl (stereo partly drawn)"
  Emax: "25 to 100%"

Please give measured Emax of the following entry: Cc1ccccc1C(c1cnc(NC(=O)C2(c3ccc4c(c3)OCO4)CC2)s1)N1CCCC1 (stereo not drawn)
> 100%

Please give measured Emax of the following entry: CS(=O)(=O)c1ccc(C(c2cnc(NC(=O)C3(c4ccc5c(c4)OCO5)CC3)s2)N2CCCCC2)cc1 (stereo not drawn)
> 100%

Please give measured Emax of the following entry: O=C(Nc1ncc(C(Cc2ccccc2Cl)N2CCC(O)CC2)s1)C1(c2ccc3c(c2)OCO3)CC1 (stereo not drawn)
> 100%

Please give measured Emax of the following entry: CCOc1ccccc1C(c1cnc(NC(=O)C2(c3ccc4c(c3)OCO4)CC2)s1)N1CC[C@@H](O)C1 (stereo partly drawn)
> 100%

Please give measured Emax of the following entry: COC[C@@H]1CCCN1C(c1cccc(OC)c1)c1cnc(NC(=O)C2(c3ccc4c(c3)OCO4)CC2)s1 (stereo partly drawn)
25 to 100%

Please give measured Emax of the following entry: COCCOC(c1cnc(NC(=O)C2(c3ccc4c(c3)OCO4)CC2)s1)c1ccccc1Cl (stereo not drawn)
> 100%

Please give measured Emax of the following entry: COc1cccc(C(c2cnc(NC(=O)C3(c4ccc5c(c4)OCO5)CC3)s2)N(C)C)c1 (stereo not drawn)
> 100%

Please give measured Emax of the following entry: COc1ccc(C2(C(=O)Nc3ncc(C(c4ccccc4Cl)N4CC[C@@H](O)C4)s3)CC2)cc1OC (stereo partly drawn)
> 100%

Please give measured Emax of the following entry: CC(C)(C)[C@H](CO)NC(c1cnc(NC(=O)C2(c3ccc4c(c3)OCO4)CC2)s1)c1ccccc1Cl (stereo partly drawn)
> 100%

Please give measured Emax of the following entry: O=C(Nc1ncc(C(NC2CC2)c2ccccc2Cl)s1)C1(c2ccc3c(c2)OCO3)CC1 (stereo not drawn)
> 100%

Please give measured Emax of the following entry: Cc1nn(-c2ccccc2)c(NC(=O)C2(c3ccc4c(c3)OCO4)CC2)c1-c1ccccc1
25 to 100%

Please give measured Emax of the following entry: O=C(Nc1ncc(Cc2ccccc2Cl)s1)C1(c2cccc(F)c2)CCCCC1
> 100%

Please give measured Emax of the following entry: O=C(Nc1ncc(C(NCCCn2ccnc2)c2ccccc2Cl)s1)C1(c2ccc3c(c2)OCO3)CC1 (stereo not drawn)
25 to 100%

Please give measured Emax of the following entry: O=C(Nc1ncc(C(c2ccccc2Cl)N2CC[C@@H](O)C2)s1)C1(c2cccc(C(F)(F)F)c2)CC1 (stereo partly drawn)
25 to 100%

Please give measured Emax of the following entry: O=C(Nc1ncc(CN2CC[C@@H](O)C2)s1)C1(c2ccc3c(c2)OCO3)CC1
25 to 100%

Please give measured Emax of the following entry: O=C(Nc1ncc(C(c2ccccc2C(F)(F)F)N2CC[C@@H](O)C2)s1)C1(c2ccc3c(c2)OCO3)CC1 (stereo partly drawn)
> 100%

Please give measured Emax of the following entry: CCC(c1cnc(NC(=O)C2(c3ccc4c(c3)OCO4)CC2)s1)N1CCC[C@@H]1COC (stereo partly drawn)
> 100%

The measured values listed here are drawn from patent US7977322B2.
